The values you see were collected from PubChem BioAssay AID1918934.

Test system: 292921-168-R-J2-PDC complex spheroid viability
MEASUREMENT_DESCRIPTION: Anticancer human tumor 292921-168-R-J2-PDC patient-derived pancreatic carcinoma cell line growth inhibition
STATED_CONDITIONS: second compound 10 µM; first compound 0.316 µM; hits give low values
PROPERTY_MEASURED: viability, T/C

Some entries whose results are on file:
• CC1(C)CCC(CN2CCN(c3ccc(C(=O)NS(=O)(=O)c4ccc(NCC5CCOCC5)c([N+](=O)[O-])c4)c(Oc4cnc5[nH]ccc5c4)c3)CC2)=C(c2ccc(Cl)cc2)C1 + NC1CC1c1ccc(-c2cccc(O)c2)cc1 = 52.4%
• CC1COCCN1c1cc(C2(S(C)(=N)=O)CC2)nc(-c2ccnc3[nH]ccc23)n1 (centres undefined) + NC1CC1c1ccc(-c2cccc(O)c2)cc1 = 39.6%
• CC(C)c1c(-c2ccccc2)nc2c(C#N)c[nH]n2c1=O + NC1CCC(NC2CC2c2ccccc2)CC1 = 53.2%

## Task What does the data say about its viability, T/C? Entry: COc1cc(Nc2ncc3c(n2)-c2ccc(Cl)cc2C(c2c(F)cccc2OC)=NC3)ccc1C(=O)O + NC1CCC(NC2CC2c2ccccc2)CC1
## Result 19.9%

* * *

As shown below, each of these molecules has a reported viability, T/C value.
Test system: 292921-168-R-J2-PDC complex spheroid viability
MEASUREMENT_DESCRIPTION: Anticancer human tumor 292921-168-R-J2-PDC cell line growth inhibition;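 further: seven day compound exposure before luminescent viability read; 100% = DMSO vehicle control wells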
STATED_CONDITIONS: second compound 10 µM; first compound 0.3 µM; hits give low values
Use % as the unit, but write only the number.

Some entries whose results are on file:
• CCc1c2c(nc3ccc(O)cc13)-c1cc3c(c(=O)n1C2)COC(=O)[C@]3(O)CC + NC1CCC(NC2CC2c2ccccc2)CC1 = 0.74
• O=C(C=Cc1cccc(S(=O)(=O)Nc2ccccc2)c1)NO + NC1CCC(NC2CC2c2ccccc2)CC1 = 7.61
• CCc1c2c(nc3ccc(O)cc13)-c1cc3c(c(=O)n1C2)COC(=O)[C@]3(O)CC + NC1CC1c1ccc(-c2cccc(O)c2)cc1 = 1.15

## Task What does the data say about its viability, T/C? Entry: Nc1ccn(C2OC(CO)C(O)C2(F)F)c(=O)n1 (stereo unspecified) + NC1CCC(NC2CC2c2ccccc2)CC1
## Result 9.08

## Task What does the data say about its viability, T/C? Entry: COc1cc(C2c3cc4c(cc3C(OC3OC5COC(C)OC5C(O)C3O)C3COC(=O)C23)OCO4)cc(OC)c1O (stereo unspecified) + NC1CC1c1ccc(-c2cccc(O)c2)cc1
## Result 17.1

## Task What does the data say about its viability, T/C? Entry: O=C(C=Cc1cccc(S(=O)(=O)Nc2ccccc2)c1)NO + NC1CC1c1ccc(-c2cccc(O)c2)cc1
## Result 18.7

## Task What does the data say about its viability, T/C? Entry: Nc1ccccc1NC(=O)c1ccc(CNC(=O)OCc2cccnc2)cc1 + NC1CC1c1ccc(-c2cccc(O)c2)cc1
## Result 19

## Task What does the data say about its viability, T/C? Entry: NS(=O)(=O)OCC1CC(n2ccc3c(NC4CCc5ccccc54)ncnc32)CC1O (stereo unspecified) + NC1CC1c1ccc(-c2cccc(O)c2)cc1
## Result 2.88

## Task What does the data say about its viability, T/C? Entry: CCN(c1cc(-c2ccc(CN3CCOCC3)cc2)cc(C(=O)NCc2c(C)cc(C)[nH]c2=O)c1C)C1CCOCC1 + NC1CC1c1ccc(-c2cccc(O)c2)cc1
## Result 60.2
